# protocol summary: chemical genetic growth profiling, strain panel (AID 1159580);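 also: tested at 20 µM; growth read once vehicle control cultures reached saturation at 30 °C; 1 = growth at the plate median or of vehicle wells; lower values mean less growth of the strain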
# condition label: S. cerevisiae deletion strains, growth OD, locus YDR001C, strain nth1, hits give low values
About 2,000 (36%) of roughly 5,500 compounds were called active. Inconclusive results (about 18%) are left out. This is one part of the list.
quantity kind: normalized growth
Provide a numeric answer; units are not to be included.

Below, 8 molecules whose answers are already recorded.
molecule=N#C/C(=C\c1cccc(O)c1)C(=O)O value_observed=0.988
molecule=Nc1cc(C(Cl)=C(Cl)Cl)c(S(N)(=O)=O)cc1S(N)(=O)=O value_observed=1.02
molecule="CN(C)CCC(c1ccc(Br)cc1)c1ccccn1 (centres undefined)" value_observed=0.974
molecule=CCOC(=O)[C@H](CCc1ccccc1)N[C@@H](C)C(=O)N1Cc2ccccc2C[C@H]1C(=O)O value_observed=1
molecule="C[C@]12C=CC(=O)C=C1CCC1C3C[C@@H](O)[C@](O)(C(=O)CO)[C@@]3(C)C[C@H](O)[C@@]12F (some centres undefined)" value_observed=0.983
molecule="C=C1C2=CC(=O)O[C@@H](c3ccoc3)[C@]2(C)CCC1[C@@]1(C)C=CC(=O)C(C)(C)[C@@H]1CC(=O)OC (some centres undefined)" value_observed=0.994
molecule=C=C1[C@H]2CC[C@@]3(C)[C@H](c4ccoc4)OC(=O)C[C@]13O[C@H]1C[C@H](O)C(C)(C)[C@H](CC(=O)OC)[C@]12C value_observed=1.02
molecule="C=C1C2CCC3(C)C(c4ccoc4)OC(=O)CC13OC1CC(OC(C)=O)C(C)(C)C(CC(=O)OC)C12C (centres undefined)" value_observed=1.01

Now take the following molecule into account.
# normalized growth lookup, item C=C1C2CC[C@@]3(C)[C@H](c4ccoc4)OC(=O)C[C@]13O[C@H]1CC(=O)C(C)(C)C(CC(=O)OC)[C@@]21C (some centres undefined)
0.976

###

# protocol summary: chemical genetic growth profiling, strain panel (AID 1159580);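 also: tested at 20 µM; growth read once vehicle control cultures reached saturation at 30 °C; 1 = growth at the plate median or of vehicle wells; lower values mean less growth of the strain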
# condition label: S. cerevisiae deletion strains, growth OD, locus YJL092W, strain hpr5, hits give low values
The campaign covered roughly 5,500 compounds. About 2,000 (36%) were called active. Another 18% or so got no clear call; they are omitted. The list shows a part of the results.
Entries and their normalized growth
Provide a numeric answer; units are not to be included.

compound="OC[C@H]1OC([S-])[C@H](O)[C@@H](O)[C@@H]1O.[Au+] (some centres undefined)" quantity_kind="normalized growth" value_observed=1.01
compound="CN(CCC(N)CC(=O)N[C@H]1C=CC(n2ccc(N)nc2=O)O[C@@H]1C(=O)O)C(=N)N (some centres undefined)" quantity_kind="normalized growth" value_observed=0.913
compound=CN(C)CCOC(=O)COc1ccc(Cl)cc1 quantity_kind="normalized growth" value_observed=0.943
compound="CC(=O)OCC(=O)[C@@]1(O)[C@H](OC(C)=O)CC2C3CCC4=CC(=O)C=C[C@]4(C)[C@@]3(F)[C@@H](O)C[C@@]21C (some centres undefined)" quantity_kind="normalized growth" value_observed=0.991
compound=C=C1[C@H]2CC[C@@]3(C)[C@H](c4ccoc4)OC(=O)C[C@]13O[C@H]1C[C@H](O)C(C)(C)[C@H](CC(=O)OC)[C@]12C quantity_kind="normalized growth" value_observed=1.03
compound="CN[C@@H]1[C@H](OC2[C@H](O[C@H]3[C@H](O)[C@@H](O)[C@H](N=C(N)N)[C@@H](O)[C@@H]3N=C(N)N)O[C@@H](C)[C@]2(O)C=O)O[C@@H](CO)[C@H](O)[C@H]1O (some centres undefined)" quantity_kind="normalized growth" value_observed=1.01
compound=O=C(O)CCCOc1ccc(Cl)cc1Cl quantity_kind="normalized growth" value_observed=0.94
compound=N[C@@H]1[C@@H](O)[C@H](O)[C@@H](CO)O[C@H]1O quantity_kind="normalized growth" value_observed=1.03

Now take the following compound into account.
# normalized growth lookup, item C=C1C2CC[C@@]3(C)[C@H](c4ccoc4)OC(=O)C[C@]13O[C@H]1CC(=O)C(C)(C)C(CC(=O)OC)[C@@]21C (some centres undefined)
0.967
